cytotoxicity at 10 µM overview
Experiment: Toxicity liver stage against HepG2, at 10uM
Assay type: cell-based
Parameters: test concentration 10 uM, cell line HepG2-A16-CD81EGFP
Conditions: human, HepG2-A16-CD81EGFP cells; read-out: INHIBITION
readoutKind: cytotoxicity at 10 µM (%)

INSERT INTO measurements (linenotation, readoutkind, quantitativeresult) VALUES
  ('Cc1ccc(CNc2cc3[nH]c(O)nc3cc2C)cc1', 'cytotoxicity at 10 µM', 22.2),
  ('CC(=O)N1CCN(C(=O)CCOc2ccc(C(C)C)cc2)CC1', 'cytotoxicity at 10 µM', -6.51),
  ('O=C(Nc1nc2c(s1)CN(S(=O)(=O)C1CC1)CC2)c1ccccn1', 'cytotoxicity at 10 µM', -5.46),
  ('CCCn1ncc(CN(Cc2cccnc2)Cc2cccs2)c1C', 'cytotoxicity at 10 µM', 1.64),
  ('CC1CCN(Cc2c(C(C)C)[nH]c3ncccc23)CC1', 'cytotoxicity at 10 µM', -6.43),
  ('COc1c[nH]c(C(=O)N2CCN(c3cccc(Cl)c3)CC2)cc1=O', 'cytotoxicity at 10 µM', -1);

* * *

Experiment: Toxicity liver stage against HepG2, at 10uM
Format: cell-based
Design: test concentration 10 uM, cell line HepG2-A16-CD81EGFP
Conditions: human, HepG2-A16-CD81EGFP cells; read-out: INHIBITION
readoutKind: cytotoxicity at 10 µM (%)

INSERT INTO assay_data (compound, quantitativeresult) VALUES
  ('O=S(=O)(c1ccccc1)N1C[C@@H]2CCCCN(Cc3cccs3)[C@@H]2C1', 1.56),
  ('CCOCCN1CCN(CCc2nc3ccccc3c(=O)[nH]2)CC1', 4.12),
  ('Cc1ccc(C(CNC(=O)c2c(C)noc2C(C)C)N(C)C)cc1 (centres undefined)', -12.4),
  ('CN1CCC(NC(=O)Nc2ccc(F)c(Br)c2)C1=O (centres undefined)', -137),
  ('Fc1cnc(N2CCO[C@H]3[C@H](OCCN4CCCC4)CC[C@@H]32)nc1', 1.33),
  ('O=C1[C@@H]2CC[C@@H](CN(Cc3nnc(C4CC4)o3)C2)N1Cc1cscn1', 9.57),
  ('COc1c(CNCc2ccc(C(=O)NC3CC3)cc2)c(C)nn1C', 3.18),
  ('Cc1ccc(-c2n[nH]cc2CNCC2CCS(=O)(=O)C2)o1 (centres undefined)', 12.4),
  ('Cc1cc(S(=O)(=O)N2CCCc3cc(Cl)ccc32)sc1C(=O)O', -16),
  ('COCCNC(=O)NC1(c2nc(-c3ccncc3)no2)CCCCC1', -2.46),
  ('Cc1nc(CN2CCN(c3cncc(Cl)n3)CC2)no1', 6.45),
  ('Cc1csc(NC(=O)C(C)Oc2ccc3c(c2)OCO3)n1 (centres undefined)', 8.06),
  ('CS(=O)(=O)Cc1ccc(C(=O)NCC2Cc3ccccc3O2)cc1 (centres undefined)', 6.6),
  ('Cc1cnn(CC2CCCCN2C(=O)CC(F)(F)F)c1 (centres undefined)', -11.5),
  ('COc1ccc(CN2CCCC2)cc1Oc1ccc2c(c1)CC(CN)O2 (centres undefined)', -10.5),
  ('Cc1cc(C)c2c(c1)C(CC(=O)O)C(=O)N2 (centres undefined)', 7.16),
  ('CC(=O)N1CC2(CCNCC2)c2cc(Cl)ccc21', -0.655),
  ('CC(C)CCN1C[C@@H]2C[C@H](C(=O)Nc3ccccc3)[C@H](C1)O2', -7.99),
  ('CCN(CCCN1CCOCC1)C(=O)c1cnn(CC)c1', 46.6),
  ('C[C@@H](N)C(=O)N1CCC(c2[nH]ncc2-c2ccccc2)CC1', -3.81),
  ('Cc1nn(C)c(C)c1CCC(=O)N1CCCC1Cn1cccn1 (centres undefined)', 1.78),
  ('N#Cc1cccc(N2CC3(CCN(C(=O)NC4CC4)C3)CC2=O)c1 (centres undefined)', -0.987),
  ('Cn1c(CNc2c(F)cccc2-n2cccn2)cc(=O)n(C)c1=O', -7.79),
  ('Cn1c2c(c(=O)n1C)CN(C(=O)c1cnccn1)CCC2', -113);

* * *

Assay: Toxicity liver stage against HepG2, at 10uM
Type: cell-based
Design: test concentration 10 uM, cell line HepG2-A16-CD81EGFP
Conditions: human, HepG2-A16-CD81EGFP cells; read-out: INHIBITION
Listed next: entries and their corresponding cytotoxicity at 10 µM.
readoutKind: cytotoxicity at 10 µM (%)

INSERT INTO results (molecule, readoutkind, measurementunit, quantitativeresult) VALUES
  ('O=C(CNc1cc2c(cc1Br)OCCO2)NC1CCS(=O)(=O)C1 (stereo unspecified)', 'cytotoxicity at 10 µM', '%', 6.43),
  ('Cc1c(C(=O)N2CCC2)nnn1-c1ccc2ncccc2c1', 'cytotoxicity at 10 µM', '%', -2.29),
  ('CN(CCCc1ccccc1)C(=O)c1cn2c(n1)CNCC2', 'cytotoxicity at 10 µM', '%', -52.4),
  ('Cc1noc(C)c1CN1C[C@H](OCc2ccncc2)[C@H]2OCCC[C@H]21', 'cytotoxicity at 10 µM', '%', 9.98),
  ('COc1ccc(OCc2cc(C(=O)N3CC=CC3)n[nH]2)c(Cl)c1', 'cytotoxicity at 10 µM', '%', 7.26),
  ('O=C(c1ccnnc1)N1CCN2C[C@H](Oc3cccnc3)C[C@H]2C1', 'cytotoxicity at 10 µM', '%', 1.43),
  ('CNC(=O)N1CCN(C(=O)C(C)C)CC2(CC(=O)N(C)C2)C1 (stereo unspecified)', 'cytotoxicity at 10 µM', '%', 7.43),
  ('Cc1cccc(-c2noc(CN3CCc4nn(C)c(=O)cc4C3)n2)c1', 'cytotoxicity at 10 µM', '%', 5.15),
  ('O=C(c1ccc[nH]1)N1Cc2nccn2CC(COc2cccnc2)C1 (stereo unspecified)', 'cytotoxicity at 10 µM', '%', 18.1),
  ('Clc1ccc(C2(NCc3noc(C4CC4)n3)CCOCC2)cc1', 'cytotoxicity at 10 µM', '%', -3.1),
  ('CNC(=O)NC(=O)CN1CCC(c2cccc(F)c2)C1 (stereo unspecified)', 'cytotoxicity at 10 µM', '%', -8.75);

* * *

Experiment: Toxicity liver stage against HepG2, at 10uM
Assay type: cell-based
Parameters: test concentration 10 uM, cell line HepG2-A16-CD81EGFP
Conditions: human, HepG2-A16-CD81EGFP cells; read-out: INHIBITION
readoutKind: cytotoxicity at 10 µM (%)

INSERT INTO measurements (compound, quantitativeresult) VALUES
  ('CC1=Nc2c(c(O)nn2C(C)C)C(c2cn(C)nc2C)S1 (stereo not given)', -3.53),
  ('Cn1cc(C(O)CNC(=O)c2ccc(F)cc2Cl)cn1 (stereo not given)', 0.055),
  ('Cc1nn(C)c(C)c1C1CCCN1C(=O)CCc1cscn1 (stereo not given)', -3.66),
  ('CCOc1cccc(C(C(=O)O)N(C)Cc2cc(C)no2)c1 (stereo not given)', 4.64),
  ('COc1cccc(CN(C)C(C)c2nccs2)c1OCCn1ccnc1 (stereo not given)', -0.21),
  ('O=C(NCC1(c2cccs2)CCCCC1)N1CCOC(CO)C1 (stereo not given)', 0.75),
  ('CCC(C(=O)N(C)CCC1=CCN(C)CC1)c1ccccc1 (stereo not given)', -10.9),
  ('CN1CC2(CCN(Cc3ncc[nH]3)CC2)CC1=O', -1.52),
  ('CN(Cc1cccs1)C1CCC[C@@H]2CN(C(N)=O)C[C@H]12 (stereo not given in full)', 18.6),
  ('Cc1ccc2c(n1)N(Cc1cccnc1)CCN(C(=O)C1CC=CC1)C2', 8.07),
  ('NC(=O)C1CCN(c2cncc(-n3cccn3)n2)CC1', 12.5),
  ('CCN(Cc1ccc(F)cc1Cl)C1CCS(=O)(=O)C1 (stereo not given)', 14.9),
  ('Cc1nc(COc2ccc(CNCC3CN(C)CCO3)cc2)cs1 (stereo not given)', -13.1),
  ('Cc1nn(C)c(N2CCOCC2)c1CNC1CCC(O)CC1 (stereo not given)', -13.2),
  ('Cn1cnc2c1C(COCc1cccnc1)N(Cc1nccs1)CC2 (stereo not given)', 10.5),
  ('CCCN1CCN(S(=O)(=O)c2ncn(C)c2Cl)CC1', 9.97),
  ('Cc1cccc(C(=O)N2CCc3c(COCC4CC4)cncc3C2)n1', -80.1),
  ('CC(C)(C)c1noc(CNc2ccccc2N2CCC(O)CC2)n1', 0.965),
  ('CCCC1CN(CCOC)C(=O)c2cccnc2O1 (stereo not given)', 5.42),
  ('Cc1cn2nc(N3CCCC3Cn3cccn3)sc2n1 (stereo not given)', -18.1),
  ('Cc1n[nH]c(C2CN(CC(=O)NCCC3=CCCCC3)CCO2)n1 (stereo not given)', 12.9),
  ('CC(C)c1csc(C2CCCN(C(=O)Cn3ccccc3=O)C2)n1 (stereo not given)', -14.4),
  ('OC1(Cn2ccc3ncccc32)CCN(Cc2cc(F)cc(F)c2)CC1', -5.41),
  ('CCc1nccn1C1CCCN(C(=O)c2cnc[nH]2)C1 (stereo not given)', 2.52),
  ('CCCNC(=O)c1ccc(NC(=O)NC(C)c2ccccn2)cc1 (stereo not given)', 9.15);
